These measurements were taken from ChEMBL document CHEMBL1156175.

# System: Escherichia coli
# assay-name: Antibacterial activity against Escherichia coli ATCC 35218 after 24 hrs by colorimetric method using dye MTT
# Format: functional
# condition-parameters: ATCC 35218, 24 h
Measured log10 of MIC, listed per entry.
Note the log scale: values are log10 of MIC expressed in µg/mL.

INSERT INTO assay_data (molecule, reported_measurement) VALUES
  ('NC[C@H]1O[C@H](O[C@H]2[C@H](O)[C@@H](O[C@H]3O[C@H](CO)[C@@H](O)[C@H](N)[C@H]3O)[C@H](N)C[C@@H]2N)[C@H](O)[C@@H](O)[C@@H]1O', 0.50);

Query string: Could you share what log10 of MIC was measured for CC(CNC(=O)c1ccccc1O)/N=C/c1cc(Cl)ccc1O (stereo unspecified) , tested on Escherichia coli?
Result string: 1.10

Query string: Give log10 of MIC (Escherichia coli) of the following molecule: Cc1ccc(C(=O)NCC(C)/N=C/c2cc(Br)cc(Br)c2O)c(O)c1 (stereo unspecified)
Result string: -0.11

Query string: # value lookup — system Escherichia coli, readout log10 of MIC, item Cc1ccc(C(=O)NCC(C)/N=C/c2c(O)ccc3ccccc23)c(O)c1 (stereo unspecified)
Result string: 1.10

Query string: Which log10 of MIC is reported with Escherichia coli for this entry: Cc1ccc(C(=O)NCC(C)/N=C/c2cc(Cl)cc(Cl)c2O)c(O)c1 (stereo unspecified) ?
Result string: 0.50

Query string: Report log10 of MIC for CC(CNC(=O)c1ccccc1O)/N=C/c1cc(I)ccc1O (stereo unspecified) tested on Escherichia coli.
Result string: 0.80

Query string: GET /values?readout=log10 of MIC&system=Escherichia coli&item= CC(CNC(=O)c1ccccc1O)/N=C/c1cc(Br)cc(Br)c1O (stereo unspecified)
Result string: 1.40

Query string: Missing value: log10 of MIC, Escherichia coli, entry Cc1ccc(C(=O)NCC(C)/N=C/c2cc(F)ccc2O)c(O)c1 (stereo unspecified) . Fill in?
Result string: 0.80

Query string: Please tell me: log10 of MIC of CC(CNC(=O)c1ccccc1O)/N=C/c1cc(Cl)cc(Cl)c1O (stereo unspecified) , system Escherichia coli?
Result string: -0.41

Query string: Observed log10 of MIC on Escherichia coli for Cc1ccc(C(=O)NCC(C)/N=C/c2cc(I)ccc2O)c(O)c1 (stereo unspecified) , please.
Result string: -0.41

* * *

# tested-on: 3-oxoacyl-[acyl-carrier-protein] synthase 3 (Escherichia coli)
# Sequence (C3TDZ2 whole entry): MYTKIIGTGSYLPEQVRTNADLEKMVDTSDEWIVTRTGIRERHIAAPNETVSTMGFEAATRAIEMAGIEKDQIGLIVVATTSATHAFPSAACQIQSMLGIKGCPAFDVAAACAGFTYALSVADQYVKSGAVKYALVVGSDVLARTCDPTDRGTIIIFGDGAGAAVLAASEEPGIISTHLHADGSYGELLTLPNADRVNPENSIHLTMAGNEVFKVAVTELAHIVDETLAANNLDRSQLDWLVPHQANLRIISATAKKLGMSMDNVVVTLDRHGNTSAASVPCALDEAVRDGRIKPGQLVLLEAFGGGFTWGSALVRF
# assay-name: Inhibition of Escherichia coli KAS3 after 25 mins assessed as incorporation of 3H signal in the final product by liquid scintillation counter
log10(IC50) reference
# log10 transformed; quantity=IC50; unit=µM

Worked examples follow.
INSERT INTO measurements (molecule, reported_measurement) VALUES
  ('CC(CNC(=O)c1cc(Br)ccc1O)/N=C/c1cc(Cl)cc(Cl)c1O (configuration not stated)', 1.29),
  ('Cc1ccc(C(=O)NCC(C)/N=C/c2cc(Br)cc(Br)c2O)c(O)c1 (configuration not stated)', 1.06),
  ('CC(CNC(=O)c1ccccc1O)/N=C/c1cc(Cl)ccc1O (configuration not stated)', 1.21);

Query string: # get_value(readout='log10(IC50)', item= Cc1ccc(C(=O)NCC(C)/N=C/c2cc(F)ccc2O)c(O)c1 (configuration not stated) )
Result string: 1.23

Query string: Any idea what log10(IC50) was measured for CC(CNC(=O)c1ccccc1O)/N=C/c1cc(I)ccc1O (configuration not stated) ?
Result string: 0.26

Query string: What value of measured log10(IC50) is listed for Cc1ccc(C(=O)NCC(C)/N=C/c2cc(Br)ccc2O)c(O)c1 (configuration not stated) ?
Result string: 1.21

Query string: // lookup log10(IC50) for Cc1ccc(C(=O)NCC(C)/N=C/c2c(O)ccc3ccccc23)c(O)c1 (configuration not stated)
Result string: 1.11

Query string: For the molecule shown here, CC(CNC(=O)c1cc(Br)ccc1O)/N=C/c1cc(I)ccc1O (configuration not stated) , give the reported log10(IC50).
Result string: 1.27

Query string: Quick one: log10(IC50) for Cc1ccc(C(=O)NCC(C)/N=C/c2cc(I)ccc2O)c(O)c1 (configuration not stated) ?
Result string: 0.01

Query string: For the molecule CC(CNC(=O)c1ccccc1O)/N=C/c1cc(Br)ccc1O (configuration not stated) , what log10(IC50) is on record?
Result string: 1.20

* * *

MIC values by entry
# Tested on: Bacillus subtilis
# assay-name: Antibacterial activity against Bacillus subtilis ATCC 6633 after 24 hrs by colorimetric method using dye MTT
# Format: functional
# condition-parameters: ATCC 6633, 24 h
Expressed in µg/mL, but write only the number.

Sample answers from the record:
INSERT INTO assay_data (molecule, reported_measurement) VALUES
  ('Cc1ccc(C(=O)NCC(C)/N=C/c2cc(F)ccc2O)c(O)c1 (configuration not stated)', 3.13),
  ('CC(CNC(=O)c1ccccc1O)/N=C/c1cc(I)cc(I)c1O (configuration not stated)', 12.5);

Query string: Endpoint output: MIC of CC(CNC(=O)c1ccccc1O)/N=C/c1cc(Cl)cc(Cl)c1O (configuration not stated) . Value?
Result string: 1.56

Query string: Look up MIC: Cc1ccc(C(=O)NCC(C)/N=C/c2cc(Br)cc(Br)c2O)c(O)c1 (configuration not stated)
Result string: 3.13

Query string: Given Cc1ccc(C(=O)NCC(C)/N=C/c2cc(I)ccc2O)c(O)c1 (configuration not stated) , state its recorded MIC.
Result string: 1.56

Query string: Quick check: MIC of Cc1ccc(C(=O)NCC(C)/N=C/c2cc(Cl)cc(Cl)c2O)c(O)c1 (configuration not stated) ?
Result string: 1.56

Query string: I'd like to know its MIC. The molecule in question is CC(CNC(=O)c1ccccc1O)/N=C/c1cc(Br)cc(Br)c1O (configuration not stated)
Result string: 12.5

* * *

# tested-on: 3-oxoacyl-[acyl-carrier-protein] synthase 3 (Escherichia coli)
# assay-name: Inhibition of Escherichia coli KAS3 after 1 min assessed as incorporation of 3H signal in the final product by liquid scintillation counter
# condition-parameters: in the assay text read “after 25 mins” for “after 1 min”
pIC50: −log10 of the molar value.
Please enter true where pIC50 is greater than or equal to 5, and false where it is lower.

Field: example entries. Status: answers known.
INSERT INTO assay_data (compound, tested_on, answer_label) VALUES
  ('CC(CNC(=O)c1ccccc1O)/N=C/c1ccccc1O (stereo not given)', '3-oxoacyl-[acyl-carrier-protein] synthase 3 (Escherichia coli)', 'false'),
  ('Cc1ccc(C(=O)NCC(C)/N=C/c2ccccc2O)c(O)c1 (stereo not given)', '3-oxoacyl-[acyl-carrier-protein] synthase 3 (Escherichia coli)', 'false'),
  ('CC(CNC(=O)c1cc(Br)ccc1O)/N=C/c1cc(I)cc(I)c1O (stereo not given)', '3-oxoacyl-[acyl-carrier-protein] synthase 3 (Escherichia coli)', 'false'),
  ('CC(CNC(=O)c1ccccc1O)/N=C/c1cc(Cl)cc(Cl)c1O (stereo not given)', '3-oxoacyl-[acyl-carrier-protein] synthase 3 (Escherichia coli)', 'true'),
  ('CC(CNC(=O)c1cc(Br)ccc1O)/N=C/c1c(O)ccc2ccccc12 (stereo not given)', '3-oxoacyl-[acyl-carrier-protein] synthase 3 (Escherichia coli)', 'false');

Query string: Item CC(CNC(=O)c1cc(Br)ccc1O)/N=C/c1cc(Br)cc(Br)c1O (stereo not given) with pIC50 of 5 or above?
Result string: false

Query string: Is the recorded value of pIC50 equal to or greater than 5 for this compound? Cc1ccc(C(=O)NCC(C)/N=C/c2cc(Cl)ccc2O)c(O)c1 (stereo not given)
Result string: false

Query string: # check: pIC50 of CC(CNC(=O)c1ccccc1O)/N=C/c1cc(I)cc(I)c1O (stereo not given) is greater than or equal to 5
Result string: true

Query string: Can CC(CNC(=O)c1ccccc1O)/N=C/c1cc(F)ccc1O (stereo not given) be said to have pIC50 at or above 5?
Result string: false

Query string: API: above_or_equal(metric=pIC50, cutoff=5) for item CC(CNC(=O)c1ccccc1O)/N=C/c1cc(Br)cc(Br)c1O (stereo not given)
Result string: true

Query string: Confirm if pIC50 reported for the compound CC(CNC(=O)c1cc(Br)ccc1O)/N=C/c1cc(Br)ccc1O (stereo not given) is 5 or above.
Result string: false
